Every entry's value here was drawn from ChEMBL document CHEMBL1149377.

System: Plasmodium yoelii
Assay: Antimalarial activity in Plasmodium yoelii MDR infected Swiss mice (Mus musculus) at 96 mg/kg Intramuscular dose
Type: functional
Details: im
Please go through the items and note down their inhibition in vivo at 96 mg/kg.
Express your answer in %, writing the number without its unit.

Task: Reported inhibition in vivo at 96 mg/kg for C=C(c1ccc2ccc3ccccc3c2c1)C1COC2(CCCCC2)OO1 (configuration not stated) : what is it?
Result: 13

Task: Follow-up item: C=C(c1ccc2c(c1)Cc1ccccc1-2)C1COC2(CCCC2)OO1 (configuration not stated)
Result: 100

Task: Now give it for C=C(c1cccc2ccccc12)C1COC2(CCCCC2)OO1 (configuration not stated) too.
Result: 87

Task: What do you get for C=C(c1ccc2c(c1)Cc1ccccc1-2)C1COC2(CCCCC2)OO1 (configuration not stated) ?
Result: 83

Task: Repeat for the following compound: C=C(c1ccc2c(ccc3ccccc32)c1)C1COC2(CCCC2)OO1 (configuration not stated)
Result: 100

Task: Same question, C=C(c1ccc(F)cc1)C1COC2(CCCCC2)OO1 (configuration not stated) this time
Result: 89

Task: Continue with C=C(c1ccc2ccc3ccccc3c2c1)C1COC2(CCCC2)OO1 (configuration not stated)
Result: 99

Task: Repeat with C=C(c1ccc2ccccc2c1)C1COC2(CCCC2)OO1 (configuration not stated)
Result: 100

Task: # repeat for C=C(c1ccc2c(ccc3ccccc32)c1)C1COC2(CCCCC2)OO1 (configuration not stated)
Result: 81

Task: # iterate: C=C(c1ccccc1)C1COC2(CCCC2)OO1 (configuration not stated)
Result: 100

Task: Another compound to check: C=C(c1cccc2ccccc12)C1COC2(CCCC2)OO1 (configuration not stated)
Result: 91

Task: # iterate: C=C(c1ccc2ccccc2c1)C1COC2(CCCCC2)OO1 (configuration not stated)
Result: 97
